assay: Probe fluorescence ratio response to oleate:BSA complex, relative to ADIFAB2 (ΔR/ΔRAD2); assay type: binding; conditions: fluorescence response (R-Ro) relative to ADIFAB2; oleate

molecule | ΔR/ΔRAD2 OA
L1P14 A9: acrylodan-labeled rI-FABP mutein: Y14 L, L38 wt, L72 G, Y117 I (protein, UniProt P02693 2-132, looked up, variant Y14L L72G Y117I, acrylodan label, acrylodan-labeled rI-FABP mutein: Y14 L, L38 wt, L72 G, Y117 I) Fatty acid-binding protein, …: AFDGTWKVDRNENLEKFMEKMGINVVKRKLGAHDNLKLTITQEGNKFTVKESSNFRNIDVVFELGVDFAYSGADGTELTGTWTMEGNKLVGKFKRVDNGKELIAVREISGNELIQTITYEGVEAKRIFKKE | 0.4
L1P16 G10: acrylodan-labeled rI-FABP mutein: Y14 W, L38 wt, L72 M, Y117 A (protein, UniProt P02693 2-132, looked up, variant Y14W L72M Y117A, acrylodan label, acrylodan-labeled rI-FABP mutein: Y14 W, L38 wt, L72 M, Y117 A) Fatty acid-binding protein, …: AFDGTWKVDRNENWEKFMEKMGINVVKRKLGAHDNLKLTITQEGNKFTVKESSNFRNIDVVFELGVDFAYSMADGTELTGTWTMEGNKLVGKFKRVDNGKELIAVREISGNELIQTATYEGVEAKRIFKKE | 0.7
L1P11 F12: acrylodan-labeled rI-FABP mutein: Y14 L, L38 I, L72 wt, Y117 wt (protein, UniProt P02693 2-132, looked up, variant Y14L L38I, acrylodan label) Fatty acid-binding protein, …: AFDGTWKVDRNENLEKFMEKMGINVVKRKLGAHDNLKITITQEGNKFTVKESSNFRNIDVVFELGVDFAYSLADGTELTGTWTMEGNKLVGKFKRVDNGKELIAVREISGNELIQTYTYEGVEAKRIFKKE | 0.7
